SYSTEM TESTED: Human Recombinant Matriptase 2 (Homo sapiens)
Construct: purchased Enzo Life Sciences (an in-house preparation was also used) ALX-201-752-1
Sequence (Q8IU80 1-811): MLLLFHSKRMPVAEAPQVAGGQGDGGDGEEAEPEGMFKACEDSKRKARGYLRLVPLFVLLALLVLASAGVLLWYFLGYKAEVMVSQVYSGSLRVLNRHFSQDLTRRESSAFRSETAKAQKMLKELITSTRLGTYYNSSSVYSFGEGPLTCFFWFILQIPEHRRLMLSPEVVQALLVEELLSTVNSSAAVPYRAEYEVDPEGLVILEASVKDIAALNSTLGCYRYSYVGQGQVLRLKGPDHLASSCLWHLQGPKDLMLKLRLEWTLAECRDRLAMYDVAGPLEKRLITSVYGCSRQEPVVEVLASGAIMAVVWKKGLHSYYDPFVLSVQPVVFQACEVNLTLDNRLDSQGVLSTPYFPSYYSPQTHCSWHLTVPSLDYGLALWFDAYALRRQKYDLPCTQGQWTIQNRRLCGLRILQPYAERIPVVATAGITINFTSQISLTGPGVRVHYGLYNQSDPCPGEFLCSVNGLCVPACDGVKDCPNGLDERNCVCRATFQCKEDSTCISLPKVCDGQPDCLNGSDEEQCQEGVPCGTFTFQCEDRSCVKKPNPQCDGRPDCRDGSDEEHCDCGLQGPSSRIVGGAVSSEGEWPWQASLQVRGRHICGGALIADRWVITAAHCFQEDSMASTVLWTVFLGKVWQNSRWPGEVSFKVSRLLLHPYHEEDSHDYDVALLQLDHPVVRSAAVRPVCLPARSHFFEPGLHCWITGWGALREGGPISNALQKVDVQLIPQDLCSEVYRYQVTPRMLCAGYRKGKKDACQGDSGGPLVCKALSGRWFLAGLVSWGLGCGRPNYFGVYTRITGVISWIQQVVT
PROTOCOL DESCRIPTION: Matriptase 2 fluorescence based inhibition assay, Method B (50 mM TRIS pH 7.5, 150 mM NaCl, 0.01% gelatin)
Format: biochemical
ASSAY CONDITIONS: 1 uM compound; Assay Used = B; read-out: Mar-2 % inhibition at 1 uM
OBSERVED PROPERTY: inhibition at 1 µM

Measured inhibition at 1 µM of N=C(N)c1ccc2cc(C(=O)NCC3(C(N)=O)CCCCC3)n(Cc3cccc4ccccc34)c2c1 [Compound I-464] : 50 to 75%

The recorded inhibition at 1 µM for NCc1ccc2cc(C(=O)N[C@H]3CC[C@H](N)CC3)n(Cc3cccc4ccccc34)c2c1 [Compound I-531] is 50 to 75%

The compound identified as N=C(N)c1ccc2cc(C(=O)N[C@H]3CC[C@@H](N)CC3)n(-c3ccc4ccccc4c3)c2c1 [Compound I-491] registered its inhibition at 1 µM at 50 to 75%

CN1CCC(CNC(=O)c2cc3ccc(C(=N)N)cc3n2Cc2cc(Oc3ncccn3)cc3ccccc23)CC1 [Compound I-590] has a reported inhibition at 1 µM of 75 to 100%

Entry N=C(N)c1ccc2cc(C(=O)NCC3CCNCC3)n(-c3ccc4ccccc4c3)c2c1 [Compound I-490] ; inhibition at 1 µM = 50 to 75%

compound N=C(N)c1ccc2cc(C(=O)NC3CCNCC3)n(Cc3cccc4ccccc34)c2c1 [Compound I-418] , inhibition at 1 µM observed: 75 to 100%

The compound listed as N=C(N)c1ccc2cc(C(=O)NCCCN3CCCCC3)n(Cc3cccc4ccccc34)c2c1 [Compound I-478] shows inhibition at 1 µM equal to 75 to 100%

// recorded inhibition at 1 µM for N=C(N)c1ccc2cc(C(=O)N[C@H]3CC[C@@H](N)CC3)n(Cc3cccc4ccccc34)c2c1 [Compound I-439] : 75 to 100%

For N=C(N)c1ccc2ccn(Cc3cccc4ccccc34)c2c1 [Compound I-521] the compound record lists inhibition at 1 µM as 50 to 75%

The reported value for CCOC(=O)N1CCC(NC(=O)c2cc3ccc(C(=N)N)cc3n2Cc2cccc3ccccc23)CC1 [Compound I-434] in terms of inhibition at 1 µM is 75 to 100%

Lab note: N=C(N)c1ccc2cc(C(=O)O)n(Cc3cc(NS(=O)(=O)c4ccccc4)cc4ccccc34)c2c1 [Compound I-567] gave inhibition at 1 µM of 75 to 100%

inhibition at 1 µM in this record for N=C(N)c1ccc2cc(C(=O)O)n(Cc3cc(S(=O)(=O)Nc4ccccc4)cc4ccccc34)c2c1 [Compound I-585] : 50 to 75%

In plain terms, N=C(N)c1ccc2cc(C(=O)Nc3nnn[nH]3)n(Cc3cc(Oc4ncccn4)cc4ccccc34)c2c1 [Compound I-572] has a documented inhibition at 1 µM of 50 to 75%

Sample N=C(NC(=O)OCC(Cl)(Cl)Cl)c1ccc2cc(C(=O)O)n(Cc3cc(Oc4ncccn4)cc4ccccc34)c2c1 [Compound I-552] ; inhibition at 1 µM observed: 0 to 25%

Lab note: measured inhibition at 1 µM of CC(C)(C)OC(=O)N[C@H]1CC[C@H](NC(=O)c2cc3ccc(CN)cc3n2Cc2cccc3ccccc23)CC1 [Compound I-530] was 0 to 25%

So for CCNC(=N)c1ccc2cc(C(=O)N[C@H]3CC[C@H](NC(=O)OC(C)(C)C)CC3)n(Cc3ccc4ccccc4c3)c2c1 [Compound I-411] , the logged inhibition at 1 µM turned out to be 0 to 25%

Entry under test: CC(C)COC(=O)NC(=N)c1ccc2cc(C(=O)OCc3ccccc3)n(Cc3cc(Oc4ncccn4)cc4ccccc34)c2c1 [Compound I-581] . Its inhibition at 1 µM was 25 to 50%

Short answer for N=C(N)c1ccc2cc(C(=O)NC3CCC(N4CCCC4)CC3)n(Cc3cccc4ccccc34)c2c1 (centres unmarked) [Compound I-462] : inhibition at 1 µM was 75 to 100%

Recorded inhibition at 1 µM (compound N=C(N)c1ccc2cc(C(=O)N3CCOCC3)n(Cc3cccc4ccccc34)c2c1 [Compound I-468] ): 25 to 50%

Value of measured inhibition at 1 µM for the entry N=C(N)c1ccc2cc(C(=O)NC3CCOCC3)n(Cc3cccc4ccccc34)c2c1 [Compound I-463] : 50 to 75%

For reference, reported inhibition at 1 µM for CC1(O)CCC(NC(=O)c2cc3ccc(C(=N)N)cc3n2Cc2cccc3ccccc23)CC1 (centres unmarked) [Compound I-436] stands at 50 to 75%

inhibition at 1 µM reading for CC(C)COC(=O)NC(=N)c1ccc2cc(C(=O)NC3CCN(C)CC3)n(Cc3cc(Oc4ncccn4)cc4ccccc34)c2c1 [Compound I-557] : 0 to 25%

N=C(N)c1ccc2cc(C(=O)NCCN)n(Cc3cccc4ccccc34)c2c1 [Compound I-465] yielded inhibition at 1 µM of 75 to 100%

Entry N=C(N)c1ccc2cc(-c3nnc([C@H]4CC[C@H](N)CC4)o3)n(Cc3cccc4ccccc34)c2c1 [Compound I-525] , inhibition at 1 µM reported as 75 to 100%

Field inhibition at 1 µM (entry NC(=O)c1ccc2cc(C(=O)N[C@H]3CC[C@H](N)CC3)n(-c3cccc4ccccc34)c2c1 [Compound I-417] ) reads 0 to 25%

Sample N=C(N)c1ccc2cc(C(=O)N[C@H]3CC[C@H](N)CC3)n(Cc3cccc4cnccc34)c2c1 [Compound I-504] ; inhibition at 1 µM observed: 50 to 75%

// N=C(N)c1ccc2cc(S(=O)(=O)N(Cc3cccc4ccccc34)[C@H]3CC[C@H](N)CC3)n(Cc3cccc4ccccc34)c2c1 [Compound I-523] : inhibition at 1 µM value = 0 to 25%

# inhibition at 1 µM (compound: CCOC(=O)NC(=N)c1ccc2cc(C(=O)OCC)n(Cc3cc(Oc4ncccn4)cc4ccccc34)c2c1 [Compound I-559] ) is 25 to 50%

Memo: NC(=O)c1ccc2cc(C(=O)N[C@@H]3CCNC3)n(Cc3cccc4ccccc34)c2c1 [Compound I-456] , reported inhibition at 1 µM: 0 to 25%

----------
SYSTEM TESTED: Human Recombinant Matriptase 2 (Homo sapiens)
Construct: purchased Enzo Life Sciences (an in-house preparation was also used) ALX-201-752-1
PROTOCOL DESCRIPTION: Matriptase 2 fluorescence based inhibition assay, Method B (50 mM TRIS pH 7.5, 150 mM NaCl, 0.01% gelatin)
Format: biochemical
ASSAY CONDITIONS: 1 uM compound; Assay Used = B; read-out: Mar-2 % inhibition at 1 uM
OBSERVED PROPERTY: inhibition at 1 µM

Reported inhibition at 1 µM for N=C(N)c1ccc2cc(C(=O)NC3CCCC(N)C3)n(Cc3cccc4ccccc34)c2c1 (stereo not drawn) was 75 to 100%

"N=C(N)c1ccc2cc(C(=O)N[C@H]3CC[C@H](N)CC3)n(Cc3cccc4ccccc34)c2c1" has a reported inhibition at 1 µM of 75 to 100%

inhibition at 1 µM reading for "CN1CCC(NC(=O)c2cc3ccc(C(=N)N)cc3n2Cc2cc(Oc3ncccn3)cc3ccccc23)CC1" : 75 to 100%

What the record says about "N=C(N)c1ccc2cc(C(=O)NCCN3CCCCC3)n(Cc3cccc4ccccc34)c2c1" : inhibition at 1 µM is 75 to 100%

Value of measured inhibition at 1 µM for the entry "N=C(N)c1ccc2cc(C(=O)N[C@H]3CC[C@H](N)CC3)n(Cc3ccc(C(N)=O)cc3)c2c1" : 25 to 50%

Recorded result, "N=C(N)c1ccc2cc(C(=O)Nc3cccc(N4CCCC4)n3)n(Cc3cccc4ccccc34)c2c1" , inhibition at 1 µM: 25 to 50%

// field: inhibition at 1 µM; key: "CN1CCN(C(=O)c2cc3ccc(C(=N)NC(=O)OC(C)(C)C)cc3n2Cc2cccc3ccccc23)CC1" ; value = 0 to 25%

Recorded result, N=C(N)c1ccc2cc(C(=O)Nc3ccc(N4CCC(F)C4)cc3)n(Cc3cccc4ccccc34)c2c1 (stereo not drawn) , inhibition at 1 µM: 25 to 50%

Briefly, inhibition at 1 µM measured for "N=C(N)c1ccc2cc(C(=O)O)n(Cc3cc(OCc4ncccn4)cc4ccccc34)c2c1" : 50 to 75%

Sure, the documented inhibition at 1 µM for "CN1CCC(NC(=O)c2cc3ccc(CN)cc3n2Cc2cccc3ccccc23)CC1" is 25 to 50%

"CCOC(=O)c1cc2ccc(C(=N)NC(=O)OCC(C)C)cc2n1Cc1cc(Oc2ccsc2)cc2ccccc12" has a reported inhibition at 1 µM of 25 to 50%

// inhibition at 1 µM value for "NCCCCNC(=O)c1cc2ccc(CN)cc2n1Cc1cccc2ccccc12" : 0 to 25%

"N=C(N)c1ccc2cc(C(=O)N[C@@H]3CCNC3)n(Cc3cccc4ccccc34)c2c1" yielded inhibition at 1 µM of 75 to 100%

inhibition at 1 µM recorded for this compound, "CN(C(=O)c1cc2ccc(C(=N)N)cc2n1Cc1cccc2ccccc12)[C@H]1CC[C@H](N)CC1" , is 50 to 75%

// "N=C(N)c1ccc2cc(C(=O)NCCCN)n(Cc3cccc4ccccc34)c2c1" : inhibition at 1 µM value = 75 to 100%

Sure, the documented inhibition at 1 µM for "N=C(N)c1ccc2cc(C(=O)NS(=O)(=O)C3CC3)n(Cc3cccc4ccccc34)c2c1" is 25 to 50%

Item: "N=C(N)c1ccc2cc(S(=O)(=O)N[C@H]3CC[C@H](N)CC3)n(Cc3cccc4ccccc34)c2c1" | inhibition at 1 µM: 50 to 75%

Record "CC(C)(C)OC(=O)NC(=N)c1ccc2cc(C(=O)N[C@H]3CC[C@H](NC(=O)OC(C)(C)C)CC3)n(Cc3ccc(C(N)=O)cc3)c2c1" . Reported inhibition at 1 µM: 0 to 25%

inhibition at 1 µM reading for "CN1CCC(NC(=O)c2cc3ccc(C(N)=O)cc3n2Cc2cccc3ccccc23)CC1" : 0 to 25%

Field inhibition at 1 µM (entry "COc1ccnc(Oc2cc(Cn3c(C(=O)O)cc4ccc(C(=N)N)cc43)c3ccccc3c2)n1" ) reads 25 to 50%

So, "N=C(N)c1ccc2cc(C(=O)O)n(Cc3cc(Oc4ncccn4)cc4ccccc34)c2n1" ? Its inhibition at 1 µM was 25 to 50%

# inhibition at 1 µM (compound: "CC(C)(C)OC(=O)N[C@H]1CC[C@H](NC(=O)c2cc3ccc(C(=N)N)cc3n2CCc2cccc3ccccc23)CC1" ) is 0 to 25%

Sample "N=C(N)c1ccc2c(CO)c(C(=O)N[C@H]3CC[C@H](N)CC3)n(Cc3cccc4ccccc34)c2c1" ; inhibition at 1 µM observed: 0 to 25%

Note to self: inhibition at 1 µM recorded for N=C(N)c1ccc2cc(C(=O)NC3CCNCC3F)n(Cc3cccc4ccccc34)c2c1 (stereo not drawn) was 75 to 100%

The compound listed as "NCc1ccc2cc(C(=O)NCC3CCNCC3)n(Cc3cccc4ccccc34)c2c1" has a reported inhibition at 1 µM of 25 to 50%

Record "Cc1c(C(=O)N[C@H]2CC[C@H](N)CC2)n(Cc2cc(Oc3ncccn3)cc3ccccc23)c2cc(C(=N)N)ccc12" , field inhibition at 1 µM: 75 to 100%

The recorded inhibition at 1 µM for "N=C(N)c1ccc2cc(C(=O)N[C@H]3CC[C@H](N)CC3)n(CCc3ccc4ccccc4c3)c2c1" is 25 to 50%

Entry "N=C(N)c1ccc2cc(C(=O)NCC3CCNCC3)n(Cc3cccc4ccccc34)c2c1" ; inhibition at 1 µM = 75 to 100%

Memo: "COC(=O)c1cc2ccc(C(=N)N)cc2n1Cc1cccc2ccccc12" , reported inhibition at 1 µM: 25 to 50%

# inhibition at 1 µM (compound: "CC(C)(C)OC(=O)NC(=N)c1ccc2cc(C(=O)N[C@H]3CC[C@H](NC(=O)OC(C)(C)C)CC3)n(Cc3ccnc4ccccc34)c2c1" ) is 0 to 25%
